- MEASURED TARGET: Tissue-type plasminogen activator (Homo sapiens, UniProt P00750)
- Sequence (P00750 whole entry): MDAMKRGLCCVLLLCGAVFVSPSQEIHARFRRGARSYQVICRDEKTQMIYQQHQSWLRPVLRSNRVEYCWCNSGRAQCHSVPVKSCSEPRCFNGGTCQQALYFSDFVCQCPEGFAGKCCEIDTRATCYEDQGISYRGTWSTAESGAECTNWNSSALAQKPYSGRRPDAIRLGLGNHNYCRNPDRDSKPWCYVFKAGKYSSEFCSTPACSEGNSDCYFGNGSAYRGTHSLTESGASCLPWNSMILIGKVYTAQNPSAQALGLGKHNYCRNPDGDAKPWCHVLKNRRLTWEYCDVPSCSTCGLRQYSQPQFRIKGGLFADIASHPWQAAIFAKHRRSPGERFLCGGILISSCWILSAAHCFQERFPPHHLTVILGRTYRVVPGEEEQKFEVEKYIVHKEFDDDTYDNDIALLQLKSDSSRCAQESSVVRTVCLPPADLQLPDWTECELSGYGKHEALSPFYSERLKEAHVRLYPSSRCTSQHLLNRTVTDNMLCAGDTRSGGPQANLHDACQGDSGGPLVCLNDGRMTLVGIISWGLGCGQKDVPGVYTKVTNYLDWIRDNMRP
- EXPERIMENTAL PROTOCOL: Inhibition of recombinant tPA (unknown origin) using Biophen CS-05(88) as substrate
pIC50: −log10 of the molar value.
PROPERTY MEASURED: pIC50

# returns recorded pIC50 (system: Tissue-type plasminogen activator (Homo sapiens, UniProt P00750)) for Nc1ccc(CC(NC(=O)OCc2ccccc2)P(=O)(Oc2ccccc2)Oc2ccccc2)cc1 (stereo not drawn) 4.49

Reported pIC50 for Tissue-type plasminogen activator (Homo sapiens, UniProt P00750), given `N=C(N)Nc1ccc(CP(=O)(Oc2ccccc2)Oc2ccccc2)cc1` ? < 5.00

Entry NCCCC(NC(=O)OCc1ccccc1)P(=O)(Oc1ccccc1)Oc1ccccc1 (stereo not drawn) , system Tissue-type plasminogen activator (Homo sapiens, UniProt P00750): what pIC50 was measured? < 5.60

----------
- MEASURED TARGET: Kallikrein-4 (Homo sapiens, UniProt Q9Y5K2)
- Sequence (Q9Y5K2 whole entry): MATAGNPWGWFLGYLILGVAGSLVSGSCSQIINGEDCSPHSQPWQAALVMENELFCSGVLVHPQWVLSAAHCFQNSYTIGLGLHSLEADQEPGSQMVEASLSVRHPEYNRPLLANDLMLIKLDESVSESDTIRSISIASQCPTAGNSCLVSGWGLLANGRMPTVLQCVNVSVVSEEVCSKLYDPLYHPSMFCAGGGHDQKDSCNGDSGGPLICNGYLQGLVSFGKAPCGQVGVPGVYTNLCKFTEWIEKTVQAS
- EXPERIMENTAL PROTOCOL: Inhibition of human recombinant KLK4 expressed in Escherichia coli using Bachem I-1120 as substrate preincubated for 15 mins followed by substrate addition by microplate reader analysis
Kindly state pIC50 for each of the entries shown.
Please report pIC50 as the negative decimal logarithm of the molar concentration, giving only the number.

Param item = N=C(N)c1ccc(CCC(NC(=O)OCc2ccccc2)P(=O)(Oc2ccccc2)Oc2ccccc2)cc1 (stereo not given) ; retrieve measured pIC50. 7.82

# input compound: N=C(N)c1ccc(C(NC(=O)OCc2ccccc2)P(=O)(Oc2ccccc2)Oc2ccccc2)cc1 (stereo not given) ; wanted: its pIC50 7.39

Data request, read-out pIC50, for N=C(N)NCCCC(NC(=O)OCc1ccccc1)P(=O)(Oc1ccccc1)Oc1ccccc1 (stereo not given) 7.40

Consider the compound shown here: `N=C(N)Nc1ccc(CP(=O)(Oc2ccccc2)Oc2ccccc2)cc1` What is its recorded pIC50? 6.60

Entry under review: `N=C(N)Nc1ccc(CCP(=O)(Oc2ccccc2)Oc2ccccc2)cc1` . Reported pIC50? 7.10

State the recorded pIC50 for this entry: N=C(N)Nc1ccc(C(NC(=O)OCc2ccccc2)P(=O)(Oc2ccccc2)Oc2ccccc2)cc1 (stereo not given) 8.47

----------
- MEASURED TARGET: Tissue-type plasminogen activator (Homo sapiens)
- EXPERIMENTAL PROTOCOL: Inhibition of recombinant tPA (unknown origin) using Biophen CS-05(88) as substrate
pIC50: −log10 of the molar value.
Kindly state pIC50 for each of the entries shown.

What is its pIC50 for Tissue-type plasminogen activator (Homo sapiens)? Entry: N=C(N)c1ccc(C(NC(=O)OCc2ccccc2)P(=O)(Oc2ccccc2)Oc2ccccc2)cc1 (stereo not given) < 5.60

Recorded pIC50 for N=C(N)Nc1ccc(C(NC(=O)OCc2ccccc2)P(=O)(Oc2ccccc2)Oc2ccccc2)cc1 (stereo not given) with Tissue-type plasminogen activator (Homo sapiens), please? 3.60

# query: pIC50 | item `N=C(N)Nc1ccc(CCP(=O)(Oc2ccccc2)Oc2ccccc2)cc1` | system: Tissue-type plasminogen activator (Homo sapiens) < 5.00

Request - read-out pIC50 | tested on Tissue-type plasminogen activator (Homo sapiens) | compound O=C(NC(c1ccc(O)cc1)P(=O)(Oc1ccccc1)Oc1ccccc1)OCc1ccccc1 (stereo not given) < 5.00

What is its pIC50 for Tissue-type plasminogen activator (Homo sapiens)? Entry: Nc1ccc(C(NC(=O)OCc2ccccc2)P(=O)(Oc2ccccc2)Oc2ccccc2)cc1 (stereo not given) < 5.00
